molecular target: HLA-A1 (A*0101) (Homo sapiens, UniProt P04439, A114D/A174V/A182V/D101N/D185E/E176A/E190D/L180R/Q94H/R68K/S129P/T187R/V100A/V91M/W191G); assay: biochemical; type: binding
pIC50: −log10 of the molar value. No end group written: not given here.
Give T when the value for pIC50 is at least 7. Give F when it is less.

NYLVKHHMY [Peptide 9018.0037]; F
NTDKSLVKY [Peptide 9018.0008]; T
HMDRELHPEY [Peptide 9018.0005]; T
VTTIVYIEY [Peptide 9018.0041]; T
SYEWRLRRY [Peptide 9018.0036]; F
QVDYYGLYY [Peptide 1580.19]; T
CQDKILTHY [Peptide 86.0141]; F
VSRRAKGWFY [Peptide 9015.0178]; F
NSLVKHHMY [Peptide 9015.0033]; F
VSDFRWYRY [Peptide 1549.43]; T
LTDQLIHMYY [Peptide 9018.0029]; T
ETDLDMLRHLY [Peptide 9012.0172]; T
ETVPISHLY [Peptide 9012.0132]; F

From: patent US9340577B2
